System: BRK
Construct: gene PTK6
MEASUREMENT PARAMETERS: concentration: 1 μM, replicates: in singlicate; n = 1;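 further: KINOMEscan kinase panel screen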
# note: boundary value 10% maps to not satisfied; %Inh below it maps to satisfied

A selection of reference data follows.
{"SMILES REPRESENTATION": "COc1cccc(-c2ccc3c(NC(=O)C4CC4)n[nH]c3n2)c1", "TEST TARGET": "BRK", "ASSIGNED CATEGORY": "satisfied"}
{"SMILES REPRESENTATION": "Cn1cc(-c2[nH]c3cc(NC(=O)[C@H](N)C4CCCCC4)cc4c3c2C=NNC4=O)cn1", "TEST TARGET": "BRK", "ASSIGNED CATEGORY": "not satisfied"}
{"SMILES REPRESENTATION": "O=C(Nc1cccc(-c2nn3ccccc3c2-c2ccnc(Nc3cccc(C(F)(F)F)c3)n2)c1)c1c(F)cccc1F", "TEST TARGET": "BRK", "ASSIGNED CATEGORY": "not satisfied"}
{"SMILES REPRESENTATION": "COC(=O)Nc1nc2ccc(Oc3ccc(NC(=O)Nc4cc(C(F)(F)F)ccc4F)cc3)cc2n1C.Cl", "TEST TARGET": "BRK", "ASSIGNED CATEGORY": "satisfied"}

Query string: For Cn1cc(-c2ccc3c(c2)CCN3C(=O)Cc2cccc(Cl)c2)c2c(N)ncnc21 , is the recorded %Inh below the cut-off of 10%?
Result string: not satisfied

Query string: Queued: CSc1cccc2c(-c3ccncn3)c(-c3ccc(F)cc3)nn12
Result string: satisfied

Query string: Queued: Oc1cc(Nc2ccnc3cc(I)ccc23)ccc1F
Result string: not satisfied

Query string: Queued: COc1cc(Nc2nccc(-c3c(-c4cccc(NC(=O)c5c(F)cccc5F)c4)nn4ncccc34)n2)cc(OC)c1OC
Result string: not satisfied

Query string: Queued: CN(C)Cc1ccc(-c2ccc3c(Nc4ccc(Oc5ccccn5)cc4)ccnc3c2)o1
Result string: not satisfied

Query string: Queued: FC(F)(F)c1ccc(/C=C/c2cncnc2Nc2ccc3[nH]c(Cc4ccccc4)nc3c2)cc1
Result string: not satisfied

Query string: Queued: CC(=O)N1CCN(c2ccc(Nc3nccc(-c4sc(C(C)C)nc4-c4cccc(NS(=O)(=O)c5cccc(Cl)c5)c4)n3)cn2)CC1
Result string: not satisfied

Query string: Queued: C[C@@H]1CC[C@@H](C(=O)Nc2ccccc2)CN1c1cc(-c2ccc3c(N)n[nH]c3c2)nc(N)n1
Result string: satisfied

Query string: Queued: Cl.c1ccc(-c2ccc3c(Nc4ccc5[nH]ccc5c4)ccnc3c2)nc1
Result string: not satisfied

Query string: Queued: Nc1ncc(-c2cccnc2)c2scc(-c3ccc4c(c3)CCN4C(=O)Cc3ccccc3)c12
Result string: not satisfied

Query string: Queued: Cn1cc(-c2ccc3c(c2)CCN3C(=O)Cc2cccc(F)c2)c2c(N)ncnc21
Result string: not satisfied

Query string: Queued: Nc1ncnc2c1nc(-c1ccccc1)n2-c1ccccc1
Result string: satisfied

Query string: Queued: CCn1c(-c2nonc2N)nc2c(C#CC(C)(C)O)nc(OC[C@H](N)c3ccccc3)cc21
Result string: satisfied

* * *

System: PIM1
MEASUREMENT PARAMETERS: concentration: 1 μM, replicates: in singlicate; n = 1
REPORTED METRIC: %Inh
State the value with its unit after it.

Worked set:
{"COMPOUND": "COc1ccc(Nc2nccc(NCCNC(=O)c3cc4ccccc4s3)n2)cc1 [GSK1379896]", "REPORTED METRIC": "%Inh", "VAL": "8%"}
{"COMPOUND": "COc1cc(Nc2ncc3c(C)nc(-c4cc5ccccc5[nH]4)n3n2)cc(OC)c1OC [GW869516]", "REPORTED METRIC": "%Inh", "VAL": "4%"}
{"COMPOUND": "Cc1occc1-c1ncc(OC[C@@H](N)Cc2c[nH]c3ccccc23)cc1-c1ccc2[nH]nc(C)c2c1.O=C(O)C(F)(F)F [GSK682037]", "REPORTED METRIC": "%Inh", "VAL": "39%"}
{"COMPOUND": "CCn1c(-c2nonc2N)nc2c(C#CC(C)(C)O)nc(OC[C@H](N)c3ccccc3)cc21 [GSK943949]", "REPORTED METRIC": "%Inh", "VAL": "0%"}

Kindly review the next compound as well.
Query string: Param item = CN(C)S(=O)(=O)c1cc(-c2ccc3nccc(-c4cccc(S(N)(=O)=O)c4)c3c2)cnc1N [GSK1669921] ; retrieve measured %Inh.
Result string: 19%
